Cited source: ChEMBL document CHEMBL5360581

Entries and their IC50 values follow.
- Test system: SW-620
- experiment-notes: Cytotoxicity against human SW620 cells assessed inhibition of cell growth incubated for 72 hrs by MTT assay
- Format: functional, cell-based
- condition-label: SW-620, 72 h
Provide only the numeric value, understood in µM.

Recorded results for 2 compounds are shown here.
{"columns": ["smiles-code", "observed-value"],
 "data": [
  ["O=[N+]([O-])c1cccc(/C=C/c2cc(-c3ccccc3O)n(-c3ccccc3)n2)c1", 9.7],
  ["Oc1ccc(Cl)cc1-c1cc(/C=C/c2cccc(Cl)c2)nn1-c1ccccc1", 8.8]
]}

Problem: Tell us which IC50 value is on record for Oc1ccc(Cl)cc1-c1cc(/C=C/c2ccc(Cl)s2)nn1-c1ccccc1
Solution: 10.4

Problem: For the compound COc1cccc(/C=C/c2cc(-c3cc(Cl)ccc3O)n(-c3ccccc3)n2)c1 , give its reported IC50.
Solution: 19.5

====

# maps each entry to its selectivity ratio
- experiment-notes: Selectivity index, ratio of IC50 for cytotoxicity against human NHDF cells to IC50 for cytotoxicity against human MCF7 cells
- Type: toxicity, cell-based
- condition-label: NHDF cells and MCF7 cells, read-out: Ratio IC50
// keep it numeric: no unit symbol after the value

{"columns": ["smiles-code", "selectivity ratio"],
 "data": [
  ["Oc1ccc(Cl)cc1-c1cc(/C=C/c2ccc(Cl)c(Cl)c2)nn1-c1ccccc1", 2],
  ["Oc1ccccc1-c1cc(/C=C/c2ccc(Cl)s2)nn1-c1ccccc1", 1.1],
  ["Cc1ccc(/C=C/c2cc(-c3cc(Cl)ccc3O)n(-c3ccccc3)n2)s1", 1.7],
  ["Oc1ccc(Cl)cc1-c1cc(/C=C/c2cccs2)nn1-c1ccccc1", 2],
  ["Oc1ccc(Cl)cc1-c1cc(/C=C/c2cccc(Cl)c2)nn1-c1ccccc1", 1.2]
]}

Problem: State its selectivity ratio: Oc1ccccc1-c1cc(/C=C/c2ccc(Cl)c(Cl)c2)nn1-c1ccccc1
Solution: 2

====

- experiment-notes: Selectivity index, ratio of IC50 for cytotoxicity against human NHDF cells to IC50 for cytotoxicity against human A549 cells
- Format: toxicity, cell-based
- condition-label: NHDF cells and A549 cells, read-out: Ratio IC50
experimental-endpoint: selectivity ratio
API note: the answer field is a bare number with no unit suffix.

Problem: Indicate the recorded selectivity ratio value for this molecule: O=[N+]([O-])c1cccc(/C=C/c2cc(-c3ccccc3O)n(-c3ccccc3)n2)c1
Solution: 2

Problem: Consider the molecule Oc1ccc(Cl)cc1-c1cc(/C=C/c2cccs2)nn1-c1ccccc1 and give its recorded selectivity ratio.
Solution: 2

Problem: Find the measured selectivity ratio of Oc1ccc(Cl)cc1-c1cc(/C=C/c2ccc(Cl)c(Cl)c2)nn1-c1ccccc1 and report it.
Solution: 2

====

Reported selectivity ratio is given for each of the following molecules.
- experiment-notes: Selectivity index, ratio of IC50 for cytotoxicity against human NHDF cells to IC50 for cytotoxicity against human A549 cells
- Format: toxicity, cell-based
- condition-label: NHDF cells and A549 cells, read-out: Ratio IC50

Consider the following illustrative entries.
{"columns": ["smiles-code", "experimental-endpoint", "observed-value"],
 "data": [
  ["COc1cccc(/C=C/c2cc(-c3ccccc3O)n(-c3ccccc3)n2)c1", "selectivity ratio", "> 2.2"],
  ["COc1ccc(/C=C/c2cc(-c3ccccc3O)n(-c3ccccc3)n2)cc1", "selectivity ratio", "> 2.4"]
]}

Now turn to the next molecule.
Problem: Tell me its selectivity ratio given COc1ccc(/C=C/c2cc(-c3ccccc3O)n(-c3ccccc3)n2)cc1OC as the entry.
Solution: > 2.6

====

- experiment-notes: Cytotoxicity against human NHDF cells assessed inhibition of cell growth incubated for 72 hrs by MTT assay
- Format: toxicity, cell-based
Overview of reported IC50 at 72 h across a group of compounds:
The reply should contain only the number, in µM.

Worked examples follow.
{"columns": ["smiles-code", "unit-annotation", "observed-value"],
 "data": [
  ["Cc1ccc(/C=C/c2cc(-c3cc(Cl)ccc3O)n(-c3ccccc3)n2)s1", "µM", 39.4],
  ["COc1ccc(/C=C/c2cc(-c3cc(Cl)ccc3O)n(-c3ccccc3)n2)cc1OC", "µM", 39.9],
  ["Oc1ccc(Cl)cc1-c1cc(/C=C/c2ccc(Cl)c(Cl)c2)nn1-c1ccccc1", "µM", 40.2],
  ["Oc1ccc(Cl)cc1-c1cc(/C=C/c2cccs2)nn1-c1ccccc1", "µM", 39.6]
]}

Problem: Given O=[N+]([O-])c1cccc(/C=C/c2cc(-c3cc(Cl)ccc3O)n(-c3ccccc3)n2)c1 , respond with its IC50 at 72 h.
Solution: 39.7

Problem: # return recorded IC50 at 72 h for input Oc1ccccc1-c1cc(/C=C/c2ccc(Cl)cc2)nn1-c1ccccc1
Solution: 40.5

Problem: Kindly indicate its recorded IC50 at 72 h. Item: Oc1ccccc1-c1cc(/C=C/c2cccc(Cl)c2)nn1-c1ccccc1
Solution: 39.4

====

Listed here are compounds together with their documented Ratio IC50.
- experiment-notes: Selectivity index, ratio of IC50 for cytotoxicity against human NHDF cells to IC50 for cytotoxicity against human HT-1080 cells

Look over these answered cases.
{"columns": ["smiles-code", "Ratio IC50"],
 "data": [
  ["COc1ccc(/C=C/c2cc(-c3ccccc3O)n(-c3ccccc3)n2)cc1", ">2.4"],
  ["COc1cccc(/C=C/c2cc(-c3ccccc3O)n(-c3ccccc3)n2)c1", ">2.2"],
  ["COc1ccc(/C=C/c2cc(-c3ccccc3O)n(-c3ccccc3)n2)cc1OC", ">2.6"],
  ["Oc1ccccc1-c1cc(/C=C/c2ccccc2Cl)nn1-c1ccccc1", ">2.2"]
]}

Next, consider the following compound.
Problem: Report Ratio IC50 for COc1cc(/C=C/c2cc(-c3ccccc3O)n(-c3ccccc3)n2)cc(OC)c1OC
Solution: >3.4

====

compounds and their reported selectivity ratio
- experiment-notes: Selectivity index, ratio of IC50 for cytotoxicity against human NHDF cells to IC50 for cytotoxicity against human MCF7 cells
- Format: toxicity, cell-based
- condition-label: NHDF cells and MCF7 cells, read-out: Ratio IC50

Check out these entries, answers already filled in.
{"columns": ["smiles-code", "selectivity ratio"],
 "data": [
  ["COc1cccc(/C=C/c2cc(-c3ccccc3O)n(-c3ccccc3)n2)c1", "> 2.2"],
  ["Oc1ccccc1-c1cc(/C=C/c2ccccc2Cl)nn1-c1ccccc1", "> 2.2"],
  ["COc1cc(/C=C/c2cc(-c3ccccc3O)n(-c3ccccc3)n2)cc(OC)c1OC", "> 3.4"]
]}

# next compound below
Problem: Identify selectivity ratio associated with the compound COc1ccc(/C=C/c2cc(-c3ccccc3O)n(-c3ccccc3)n2)cc1OC
Solution: > 2.6
